# Test system: HepG2
# method description: Cytoprotection against rotenone-induced mitochondrial dysfunction in human HepG2 cells assessed as acute ATP rescue at 10 uM co-treated with rotenone for 1 hr by luciferase-based assay relative to control
# Assay type: functional
Measured Activity by item

Observe how each entry below is paired with its result.
molecule=COc1ccc(CCNC(=O)CCCC2=C(C)C(=O)c3ccccc3C2=O)cc1OC target_desc=HepG2 endpoint_result=100%
molecule=CC1=C(CCC(F)(F)F)C(=O)c2ccccc2C1=O target_desc=HepG2 endpoint_result="60 - 90%"
molecule=CC1=C(CCCCC(=O)O)C(=O)c2ccccc2C1=O target_desc=HepG2 endpoint_result="60 - 90%"
molecule="CC1=C(CC2CCC(=O)O2)C(=O)c2ccccc2C1=O (stereo not given)" target_desc=HepG2 endpoint_result="60 - 90%"
molecule=C=CCCCCCCCCC1=C(C)C(=O)c2ccccc2C1=O target_desc=HepG2 endpoint_result="60 - 90%"

Please list Activity recorded for the molecule CC1=C(CC(C)(O)C(F)(F)F)C(=O)c2ccccc2C1=O (stereo not given)
60 - 90%

Please list Activity recorded for the molecule "CCOC(=O)CCC1=C(C)C(=O)c2ccccc2C1=O"
<30%

---

Measured Activity by item
# Tested on: HepG2
# method description: Cytoprotection against rotenone-induced mitochondrial dysfunction in human HepG2 cells assessed as acute ATP rescue at 10 uM co-treated with rotenone for 1 hr by luciferase-based assay relative to control
# Assay type: functional

Please list Activity recorded for the compound "CCCCOC(=O)CCC1=C(C)C(=O)c2ccccc2C1=O"
<30%

Please list Activity recorded for the compound "CC1=C(CCCC(=O)N[C@@H](Cc2ccccc2)C(=O)O)C(=O)c2ccccc2C1=O"
5 - 70%

Please list Activity recorded for the compound "C=CCCC1=C(C)C(=O)c2ccccc2C1=O"
60 - 90%

Please list Activity recorded for the compound "CC1=C(CCCC(=O)NCCc2c[nH]c3ccccc23)C(=O)c2ccccc2C1=O"
100%

Please list Activity recorded for the compound "COc1ccc(CC2=C(C)C(=O)c3ccccc3C2=O)cc1OC"
60 - 90%

Please list Activity recorded for the compound "CCCCCCCC1=C(C)C(=O)c2ccccc2C1=O"
60 - 90%

Please list Activity recorded for the compound "CC1=C(CCCC(=O)N[C@@H](CC(C)C)C(=O)OC(C)(C)C)C(=O)c2ccccc2C1=O"
90%

Please list Activity recorded for the compound "CCCCCCC1=C(C)C(=O)c2ccccc2C1=O"
60 - 90%

Please list Activity recorded for the compound "CC1=C(CCCC(=O)N2CCC[C@H]2C(=O)O)C(=O)c2ccccc2C1=O"
5 - 70%

Please list Activity recorded for the compound "CC1=C(CCC(=O)O)C(=O)c2ccccc2C1=O"
60 - 90%

Please list Activity recorded for the compound CC1=C(CCC(C)O)C(=O)c2ccccc2C1=O (stereo not drawn)
60 - 90%

Please list Activity recorded for the compound "CC(=O)CCC1=C(C)C(=O)c2ccccc2C1=O"
60 - 90%

Please list Activity recorded for the compound "CCCCOC(=O)CCCC1=C(C)C(=O)c2ccccc2C1=O"
<30%

Please list Activity recorded for the compound "CC1=C(CCCC(=O)N[C@@H](Cc2ccc(O)cc2)C(=O)OC(C)(C)C)C(=O)c2ccccc2C1=O"
90%

Please list Activity recorded for the compound "CC1=C(CCC2CCCC2)C(=O)c2ccccc2C1=O"
60 - 90%

Please list Activity recorded for the compound "CCOC(=O)CCCC1=C(C)C(=O)c2ccccc2C1=O"
<30%

Please list Activity recorded for the compound "COC1=C(OC)C(=O)C(CCCCCCCCCCO)=C(C)C1=O"
60 - 90%

Please list Activity recorded for the compound "CC1=C(CCCC(=O)N[C@@H](CC(C)C)C(=O)O)C(=O)c2ccccc2C1=O"
5 - 70%

Please list Activity recorded for the compound "CCCCCCOC(=O)CCC1=C(C)C(=O)c2ccccc2C1=O"
<30%

Please list Activity recorded for the compound "CCCCCCOC(=O)CCCC1=C(C)C(=O)c2ccccc2C1=O"
<30%

---

Measured Activity by item
# Tested on: HepG2
# method description: Cytoprotection against rotenone-induced mitochondrial dysfunction in human HepG2 cells assessed as acute ATP rescue at 10 uM co-treated with rotenone for 1 hr by luciferase-based assay relative to control
# Assay type: functional
Express the result in % but write the number alone.

substance_smiles=CC1=C(CCCC(=O)N[C@H](CO)Cc2ccccc2)C(=O)c2ccccc2C1=O target_desc=HepG2 experimental_endpoint=Activity endpoint_result=100

Alright, here's another compound for you.
Please list Activity recorded for the compound "CC1=C(CCCC(=O)NCCc2ccc(O)cc2)C(=O)c2ccccc2C1=O"
100

---

# System: HepG2
# method description: Cytoprotection against rotenone-induced mitochondrial dysfunction in human HepG2 cells assessed as acute ATP rescue at 10 uM co-treated with rotenone for 1 hr by luciferase-based assay relative to control
# Assay type: functional
experimental endpoint: Activity

Observe how each entry below is paired with its result.
molecule="CC1=C(CC(C)CCCC(C)C)C(=O)c2ccccc2C1=O (stereo not drawn)" target_desc=HepG2 endpoint_result="60 - 90%"
molecule=CCCCCCCCC1=C(C)C(=O)c2ccccc2C1=O target_desc=HepG2 endpoint_result="60 - 90%"

Alright, here's another molecule for you.
Please list Activity recorded for the molecule "CC1=C(CCCCCC(=O)O)C(=O)c2ccccc2C1=O"
60 - 90%
